- testedOn: A3Fc-CD2 Y308A (human, UniProt Q9HC16 197-221+Q8IUX4:220-373, Y308A;internal_change)
- procedureSummary: BLI
readoutType: pKd
Entry type: numeric. Quantity: pKd, the -log10 of concentration in molar units.

Requested read-out: pKd. Entry: TCCCTCAGACCCTTTTAGTCAGTGTGGAAAATCTCTAGCAGT (ssDNA) [42-mer ssDNA, viral U5 end of 3'-LTR]
4.74

FYI, the data here is from paper PMC4956467.
